B1: tRNA (parent)
chain: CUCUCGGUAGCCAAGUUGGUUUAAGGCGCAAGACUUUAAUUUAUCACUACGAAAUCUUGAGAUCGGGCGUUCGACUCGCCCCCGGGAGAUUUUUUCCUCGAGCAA

Variants of: B1
Procedure Summary: nonsense suppression (GFP-seq) (ratio to wild type); higher = more function; SUP4oc tRNA, yeast GFP reporter sort-seq
Fewer inactive variants are shown than the library holds.
Measured Property: nonsense suppression
Kindly provide the number alone.

Please review the following examples before continuing.
Quick one: nonsense suppression for A24U A30U ?
0.0403

U4G U57G , same question.
0.0369

A13C C29U , same question.
0.806

G19A A31G , same question.
0.0307

New cases:
Quick one: nonsense suppression for A74C C79U ?
0.037

A60G G78A , same question.
0.0542

A24C A74C , same question.
0.0915

A9U G28C G85A , same question.
0.0603

A13C G88A , same question.
0.0766

A24U A60U , same question.
0.0572

`G61A` , same question.
0.853
